- Tested on: A498 renal
- test details: NCI tumour cell line growth inhibition, 48 h; in the data active = GI50 below about 0.43 µM; inactive = the rest
Pick from label 1 (active), label 0 (inactive) when you respond.

compound	assigned category
Nc1ccn([C@H]2C[C@@H](O)[C@@H](CO)S2)c(=O)n1	label 0
CCOC(=O)/C=C1\SC(=Nc2ccc(C#N)cc2)N(CCN2C(=O)/C(=C/C(=O)OCC)SC2=Nc2ccc(C#N)cc2)C1=O	label 0
Cc1ccc(N=C2CSc3nnc(-c4csc5c4CCCC5)n3N2)cc1	label 1
O=C(Nc1cnn2ccc(N3CCC[C@@H]3c3cc(F)ccc3F)nc12)N1CC[C@H](O)C1	label 0
CN1CCN(CC(=O)Nc2ccc3ncnc(Nc4ccc(Oc5cccc(C(F)(F)F)c5)c(Cl)c4)c3c2)CC1	label 0

Turning now to a further record.
How did this test come out for COc1ccc(C2NCCc3c2[nH]c2ccccc32)cc1CN1CCN(c2ccc(F)cc2)CC1 (stereo not given) ? label 1

Reference source for all entries: PubChem BioAssay (NCI)
